Target sequence: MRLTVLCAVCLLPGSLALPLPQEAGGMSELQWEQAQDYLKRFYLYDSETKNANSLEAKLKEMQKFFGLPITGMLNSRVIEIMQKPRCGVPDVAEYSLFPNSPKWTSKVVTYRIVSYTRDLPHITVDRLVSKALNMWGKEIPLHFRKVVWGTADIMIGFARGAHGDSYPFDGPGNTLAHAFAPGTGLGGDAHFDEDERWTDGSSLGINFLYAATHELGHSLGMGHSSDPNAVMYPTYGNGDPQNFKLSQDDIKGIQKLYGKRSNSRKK
measured-property: pIC50
One number for each entry, as −log10 of the molar value.

Task item: So what does the record say about pIC50 for CC(C)[C@H](NS(=O)(=O)c1ccc2c(c1)oc1ccc(-c3nccs3)cc12)C(=O)O ?
Reply: 4.24

###

# assay-text: Volume of distribution at steady state in C57BL/6 mouse at 2 mg/kg, iv
# Assay type: ADME, organism-based
# Set-up: dose 2 mg/kg, route intravenous
# setup-conditions: in vivo, read-out: Vdss
measured-property: Vd (L/kg)
Answers are plain numbers, in L/kg.

Task item: So what does the record say about Vd for CC(C)[C@H](NS(=O)(=O)c1ccc2c(c1)oc1ccc(-c3nccs3)cc12)C(=O)O ?
Reply: 0.8

###

# system-tested: UniProt P08253
# Sequence (P08253 whole entry): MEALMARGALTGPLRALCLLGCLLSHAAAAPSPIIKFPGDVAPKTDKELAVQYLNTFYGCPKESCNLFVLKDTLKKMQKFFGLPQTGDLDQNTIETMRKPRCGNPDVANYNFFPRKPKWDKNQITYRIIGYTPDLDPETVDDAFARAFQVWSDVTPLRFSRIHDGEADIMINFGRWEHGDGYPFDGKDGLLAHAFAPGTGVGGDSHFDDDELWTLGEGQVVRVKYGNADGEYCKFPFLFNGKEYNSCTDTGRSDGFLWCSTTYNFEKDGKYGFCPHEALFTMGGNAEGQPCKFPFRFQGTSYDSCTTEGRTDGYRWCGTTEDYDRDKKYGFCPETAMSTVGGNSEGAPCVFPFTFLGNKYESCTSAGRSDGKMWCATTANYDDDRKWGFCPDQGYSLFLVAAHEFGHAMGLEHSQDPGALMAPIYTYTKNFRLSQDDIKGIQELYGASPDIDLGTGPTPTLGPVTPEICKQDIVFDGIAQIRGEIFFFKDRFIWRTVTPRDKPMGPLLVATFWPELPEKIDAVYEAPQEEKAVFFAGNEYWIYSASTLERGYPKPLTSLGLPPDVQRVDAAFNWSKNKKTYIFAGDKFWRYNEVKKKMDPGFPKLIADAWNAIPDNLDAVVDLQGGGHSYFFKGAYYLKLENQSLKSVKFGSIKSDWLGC
measured-property: pIC50
One number for each entry, as −log10 of the molar value.

Task item: So what does the record say about pIC50 for CC(C)[C@H](NS(=O)(=O)c1ccc2c(c1)oc1ccc(-c3nccs3)cc12)C(=O)O ?
Reply: 6.30

###

# assay-text: Cmax in C57BL/6 mouse at 10 mg/kg, po
# Assay type: ADME, organism-based
# Set-up: dose 10 mg/kg, route oral
# setup-conditions: in vivo
measured-property: Cmax (ng/mL)
Give bare numbers, in ng/mL.

Task item: So what does the record say about Cmax for CC(C)[C@H](NS(=O)(=O)c1ccc2c(c1)oc1ccc(-c3nccs3)cc12)C(=O)O ?
Reply: 5550

###

# assay-text: AUC in C57BL/6 mouse at 10 mg/kg, po
# Type: ADME, organism-based
# Parameters: dose 10 mg/kg, route oral
# setup-conditions: plasma
measured-property: AUC (ng·h/mL)
One number for each entry, in ng·h/mL.

Task item: So what does the record say about AUC for CC(C)[C@H](NS(=O)(=O)c1ccc2c(c1)oc1ccc(-c3nccs3)cc12)C(=O)O ?
Reply: 20300

###

# Species: Homo sapiens
# assay-text: Selectivity ratio of IC50 for human MMP-8 to IC50 for human MMP-12
measured-property: Ratio IC50
One number for each entry.

Worked cases, Ratio IC50 given:
Task item: So what does the record say about Ratio IC50 for CCc1nc(-c2ccc3oc4cc(S(=O)(=O)N[C@H](C(=O)O)C(C)C)ccc4c3c2)no1 ?
Reply: 1.4

Task item: So what does the record say about Ratio IC50 for CC(C)[C@H](NS(=O)(=O)c1ccc2c(c1)oc1ccc(-c3cccs3)cc12)C(=O)O ?
Reply: 100

Task item: So what does the record say about Ratio IC50 for CC(C)[C@H](NS(=O)(=O)c1ccc2c(c1)oc1ccc(-c3nccs3)cc12)C(=O)O ?
Reply: 154

Let us examine a further case.
Task item: So what does the record say about Ratio IC50 for Cc1ccc(-c2ccc3oc4cc(S(=O)(=O)N[C@H](C(=O)O)C(C)C)ccc4c3c2)s1 ?
Reply: 125

###

# Species on record: Homo sapiens
# assay-text: Selectivity ratio of IC50 for human MMP-8 to IC50 for human MMP-12
measured-property: Ratio IC50
Give bare numbers.

Worked cases, Ratio IC50 given:
Task item: So what does the record say about Ratio IC50 for CC(C)[C@H](NS(=O)(=O)c1ccc2c(c1)oc1ccc(-c3ccoc3)cc12)C(=O)O ?
Reply: 33

Task item: So what does the record say about Ratio IC50 for CC(C)[C@H](NS(=O)(=O)c1ccc2c(c1)oc1ccc(-c3ccc(Cl)o3)cc12)C(=O)O ?
Reply: 70

Task item: So what does the record say about Ratio IC50 for CC(C)[C@H](NS(=O)(=O)c1ccc2c(c1)oc1ccc(-n3cncn3)cc12)C(=O)O ?
Reply: 4

Task item: So what does the record say about Ratio IC50 for CC(C)[C@H](NS(=O)(=O)c1ccc2c(c1)oc1ccc(-c3noc(C4CCOC4)n3)cc12)C(=O)O (stereo partly drawn) ?
Reply: 100

Task item: So what does the record say about Ratio IC50 for CC(C)[C@H](NS(=O)(=O)c1ccc2c(c1)oc1ccc(N3CCN(C)CC3)cc12)C(=O)O ?
Reply: 0.5

Task item: So what does the record say about Ratio IC50 for CC(C)[C@H](NS(=O)(=O)c1ccc2c(c1)oc1ccc(-c3noc(C4CCC4)n3)cc12)C(=O)O ?
Reply: 44

Hello, I would appreciate it if you could give Ratio IC50 for each entry below.
1. CC(C)[C@H](NS(=O)(=O)c1ccc2c(c1)oc1ccc(-c3noc(C(F)(F)F)n3)cc12)C(=O)O
2. CC(C)[C@H](NS(=O)(=O)c1ccc2c(c1)oc1ccc(-c3ccc[nH]3)cc12)C(=O)O
3. CC(C)[C@H](NS(=O)(=O)c1ccc2c(c1)oc1ccc(-c3noc(-c4ccccc4)n3)cc12)C(=O)O
4. Cc1cnc(-c2ccc3oc4cc(S(=O)(=O)N[C@H](C(=O)O)C(C)C)ccc4c3c2)s1

Reply:
[45, 143, 60, 158]

###

# Species on record: Homo sapiens
# assay-text: Selectivity ratio of IC50 for human MMP-13 to IC50 for human MMP-12
measured-property: Ratio IC50

Task item: So what does the record say about Ratio IC50 for CC(C)[C@H](NS(=O)(=O)c1ccc2c(c1)oc1ccc(-n3cncn3)cc12)C(=O)O ?
Reply: 34

Task item: So what does the record say about Ratio IC50 for CC(C)[C@H](NS(=O)(=O)c1ccc2c(c1)oc1ccc(-c3nccs3)cc12)C(=O)O ?
Reply: 1980

Task item: So what does the record say about Ratio IC50 for CC(C)[C@H](NS(=O)(=O)c1ccc2c(c1)oc1ccc(N3CCNCC3)cc12)C(=O)O ?
Reply: 34

Task item: So what does the record say about Ratio IC50 for CC(C)[C@H](NS(=O)(=O)c1ccc2c(c1)oc1ccc(-c3ccc(Cl)o3)cc12)C(=O)O ?
Reply: 1440

Task item: So what does the record say about Ratio IC50 for CC(C)[C@H](NS(=O)(=O)c1ccc2c(c1)oc1ccc(N3CCN(C)CC3)cc12)C(=O)O ?
Reply: 38

Task item: So what does the record say about Ratio IC50 for CC(C)[C@H](NS(=O)(=O)c1ccc2c(c1)oc1ccc(-c3ccoc3)cc12)C(=O)O ?
Reply: 900

Task item: So what does the record say about Ratio IC50 for CC(C)[C@H](NS(=O)(=O)c1ccc2c(c1)oc1ccc(-n3ccc(C(F)(F)F)n3)cc12)C(=O)O ?
Reply: 349

Task item: So what does the record say about Ratio IC50 for COC(=O)Nc1ccc2oc3cc(S(=O)(=O)N[C@H](C(=O)O)C(C)C)ccc3c2c1 ?
Reply: 60

Task item: So what does the record say about Ratio IC50 for CC(C)[C@H](NS(=O)(=O)c1ccc2c(c1)oc1ccc(-n3cccn3)cc12)C(=O)O ?
Reply: 37

Task item: So what does the record say about Ratio IC50 for CC(C)[C@H](NS(=O)(=O)c1ccc2c(c1)oc1ccc(-c3ccc[nH]3)cc12)C(=O)O ?
Reply: 525

Hello, I would appreciate it if you could give Ratio IC50 for each entry below.
1. CC(C)[C@H](NS(=O)(=O)c1ccc2c(c1)oc1ccc(-c3cc[nH]n3)cc12)C(=O)O
2. Cc1cnc(-c2ccc3oc4cc(S(=O)(=O)N[C@H](C(=O)O)C(C)C)ccc4c3c2)s1
3. Cc1ccc(-c2ccc3oc4cc(S(=O)(=O)N[C@H](C(=O)O)C(C)C)ccc4c3c2)s1
4. CC(C)[C@H](NS(=O)(=O)c1ccc2c(c1)oc1ccc(N3CCOCC3)cc12)C(=O)O
5. CC(C)[C@H](NS(=O)(=O)c1ccc2c(c1)oc1ccc(-c3cccs3)cc12)C(=O)O

Reply:
["> 1130", 460, 1200, 154, 1690]

###

# system-tested: Matrix metalloproteinase-12 (Canis lupus familiaris, UniProt A9X4R8)
# Sequence (A9X4R8 whole entry): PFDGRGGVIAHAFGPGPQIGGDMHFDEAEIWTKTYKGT
measured-property: pIC50
Answers are plain numbers, as −log10 of the molar value.

Task item: So what does the record say about pIC50 for CC(C)[C@H](NS(=O)(=O)c1ccc2c(c1)oc1ccc(-c3nccs3)cc12)C(=O)O ?
Reply: 7.15

###

# system-tested: UniProtKB P79227
# Sequence (P79227 whole entry): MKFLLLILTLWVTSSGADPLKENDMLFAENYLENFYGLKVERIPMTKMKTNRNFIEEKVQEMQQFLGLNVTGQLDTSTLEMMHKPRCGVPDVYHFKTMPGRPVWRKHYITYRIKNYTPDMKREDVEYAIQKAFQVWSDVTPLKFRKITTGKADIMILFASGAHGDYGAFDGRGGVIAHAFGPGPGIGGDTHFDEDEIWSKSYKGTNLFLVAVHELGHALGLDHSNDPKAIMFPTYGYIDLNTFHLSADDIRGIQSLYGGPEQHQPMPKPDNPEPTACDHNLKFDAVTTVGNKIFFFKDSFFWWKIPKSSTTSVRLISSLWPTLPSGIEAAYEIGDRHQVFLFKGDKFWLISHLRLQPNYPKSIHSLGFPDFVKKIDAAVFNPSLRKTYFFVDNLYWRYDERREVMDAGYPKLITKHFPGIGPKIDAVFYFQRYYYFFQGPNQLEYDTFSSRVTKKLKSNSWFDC
measured-property: IC50 (nM)
Give bare numbers, in nM.

Task item: So what does the record say about IC50 for CC(C)[C@H](NS(=O)(=O)c1ccc2c(c1)oc1ccc(-c3nccs3)cc12)C(=O)O ?
Reply: 57

###

# system-tested: Stromelysin-1 (Homo sapiens, UniProt P08254)
# Sequence (P08254 whole entry): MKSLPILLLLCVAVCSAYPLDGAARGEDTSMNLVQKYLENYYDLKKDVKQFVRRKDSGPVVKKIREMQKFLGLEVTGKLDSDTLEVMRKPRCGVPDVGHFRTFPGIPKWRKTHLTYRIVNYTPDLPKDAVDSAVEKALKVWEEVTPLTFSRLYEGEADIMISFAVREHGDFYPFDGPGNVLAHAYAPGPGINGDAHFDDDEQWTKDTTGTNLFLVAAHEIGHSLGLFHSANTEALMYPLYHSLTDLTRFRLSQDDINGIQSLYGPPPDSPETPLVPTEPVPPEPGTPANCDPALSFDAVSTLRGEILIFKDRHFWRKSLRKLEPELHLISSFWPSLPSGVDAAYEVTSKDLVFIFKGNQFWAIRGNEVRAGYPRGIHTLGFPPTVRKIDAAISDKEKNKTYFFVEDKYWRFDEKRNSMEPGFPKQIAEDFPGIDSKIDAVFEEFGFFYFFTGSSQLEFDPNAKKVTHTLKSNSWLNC
measured-property: pIC50
Give bare numbers, as −log10 of the molar value.

Task item: Fill in the recorded pIC50 for this compound, with Stromelysin-1 (Homo sapiens, UniProt P08254) as test system: CC(C)[C@H](NS(=O)(=O)c1ccc2c(c1)oc1ccc(-c3nccs3)cc12)C(=O)O
Reply: 5.60
